Listing: GI50 of selected compounds
test system: HOP-92; test: NCI tumour cell line growth inhibition, 48 h
Calls of active or inactive are those of the source. No stated cut-off is given here; in the data, active = GI50 up to about 1.1 µM and inactive = higher.
readoutLabel: GI50

>>> reportedresult("COc1cccc2c(=O)c3c(n(C)c12)OC(C(C)C)C3 (stereo unspecified)")
"> 100 µM (inactive)"
>>> reportedresult("COC(=O)C1(O)CC(=O)CCC1c1ccc(OC)cc1 (stereo unspecified)")
"> 100 µM (inactive)"
>>> reportedresult("CCOC(=O)C1C(=O)CC(C)(O)C(C(=O)OCC)C1c1ccc(O)c(OC)c1 (stereo unspecified)")
"> 100 µM (inactive)"
>>> reportedresult("CCN1C(=O)C/C(=C\\C(C)=O)Nc2ccccc21")
"> 100 µM (inactive)"
>>> reportedresult("CC12CCCCC1(C)C2Sc1ccccc1 (stereo unspecified)")
"26.7 µM (inactive)"
>>> reportedresult("O[C@H]1[C@H](O)[C@@H](O)CN2CC[C@H](O)[C@H]12 [CASTANOSPERMINE]")
"> 100 µM (inactive)"

###

system: UACC-62; test: NCI tumour cell line growth inhibition, 48 h
Calls of active or inactive are those of the source. No stated cut-off is given here; in the data, active = GI50 up to about 1.1 µM and inactive = higher.
Outcomes: active, inactive

>>> categorylabel("Cn1c2c(c3ccccc31)CCN1C(=O)C34CCCC3CC21S4 (stereo not given)")
"inactive"
>>> categorylabel("N#Cc1c(N)oc2cc3c(C#N)c(N)oc3cc12")
"inactive"
>>> categorylabel("COc1ccc2oc(C(=O)N3CC(CCl)c4ccc([N+](=O)[O-])cc43)cc2c1 (stereo not given)")
"inactive"
>>> categorylabel("COC(=O)CCCc1nc2ccccc2nc1/N=N/c1ccccc1")
"inactive"
>>> categorylabel("Nc1nc(Cl)cc(NCC2(CO)CC(=O)C2)n1")
"inactive"
>>> categorylabel("O=C(c1ccco1)N(C(=S)N1CCN(c2ccccn2)CC1)c1ccccc1")
"inactive"
>>> categorylabel("COC(=O)C1=C(O)c2cc(OC)c(OC)c(OC)c2C(c2ccc3c(c2)OCO3)[C@@H]1C(=O)OC (stereo not given in full)")
"inactive"
>>> categorylabel("CC1(C)COC(c2ccccc2-c2ccccc2)=N1")
"inactive"
>>> categorylabel("COC(=O)C(Cc1ccccc1)NS(=O)(=O)c1ccc(-c2c3nc(c(-c4ccc(S(=O)(=O)NC(Cc5ccccc5)C(=O)OC)cc4)c4ccc([nH]4)c(-c4ccc(S(=O)(=O)NC(Cc5ccccc5)C(=O)OC)cc4)c4nc(c(-c5ccc(S(=O)(=O)NC(Cc6ccccc6)C(=O)OC)cc5)c5ccc2[nH]5)C=C4)C=C3)cc1 (stereo not given)")
"inactive"
>>> categorylabel("Oc1nc(S)nc(SCc2c(Cl)c(Cl)c(Cl)c(Cl)c2Cl)n1")
"inactive"
>>> categorylabel("CC1(C)[C@@H](Cn2ccc(=O)[nH]c2=O)CC[C@@]1(C)CO")
"inactive"
>>> categorylabel("COc1cc2c3c(c1OC)C1(C=CC(=O)C=C1)CC3NCC2 (stereo not given)")
"inactive"
>>> categorylabel("CN(C)CCNCc1c2ccccc2c(CNCCN(C)C)c2ccccc12")
"inactive"
>>> categorylabel("Cc1nc2c(nc1C)C(=O)c1ccccc1C2=O")
"active"
>>> categorylabel("CCOC(=O)N1c2c(ccn2C)-c2ccn(C)c2N1C(=O)OCC")
"inactive"
>>> categorylabel("Cc1ccc(-c2c(N)nc(NC#N)nc2CCC(=O)Nc2ccccc2[N+](=O)[O-])cc1")
"inactive"
>>> categorylabel("CN(C)c1ccc(/C=C2\\N=C(N/N=C/c3ccccc3)NC2=O)cc1")
"inactive"
>>> categorylabel("O=C(O)[C@H](CCC[C@H]1C(=O)O[C@H](c2ccccc2)[C@H](c2ccccc2)N1C(=O)OCc1ccccc1)N[C@@H](c1ccccc1)[C@H](O)c1ccccc1")
"inactive"
>>> categorylabel("CN(C)c1ccc(/C=C/c2ccnc3ccccc23)cc1")
"inactive"
>>> categorylabel("CC(=O)OC(C)(C)/C=C/C(=O)[C@](C)(O)[C@H]1[C@H](O)C[C@@]2(C)[C@@H]3CC=C4[C@@H](C[C@H](O)C(=O)C4(C)C)[C@]3(C)C(=O)C[C@]12C")
"active"
>>> categorylabel("CC(O)CN1c2ccccc2Sc2ccccc21 (stereo not given)")
"inactive"
>>> categorylabel("COC(=O)C1(N2CCOCC2)CCC([C@@H](c2ccccc2)C(C)[N+](=O)[O-])C1 (stereo not given in full)")
"inactive"
>>> categorylabel("N/C(=N\\n1c(=S)[nH]c2ccccc2c1=O)Nn1c(=S)[nH]c2ccccc2c1=O")
"inactive"
>>> categorylabel("CCN(C(=O)N[C@H](C(=O)N[C@@H](CSC)C(=O)N[C@@H](C)C(=O)OC)C(C)C)c1ccccc1")
"inactive"
>>> categorylabel("CCOC(=O)CC1c2ccc(O)cc2OC(=O)C1c1ccc([N+](=O)[O-])cc1 (stereo not given)")
"inactive"
>>> categorylabel("Cc1ccc(-c2cc(-c3ccccc3)nc(N)n2)c(O)c1")
"inactive"
>>> categorylabel("O=C1Oc2ccccc2C(=O)/C1=C/N1C(=O)/C(=C/c2ccc([N+](=O)[O-])cc2)SC1=S")
"inactive"
>>> categorylabel("CCOC(CN(C)C(=O)OCC(Cl)(Cl)Cl)OCC")
"inactive"
>>> categorylabel("NC1=NN(c2ccccc2)C(=O)C1C(=O)C(=O)Nc1ccccc1 (stereo not given)")
"inactive"
>>> categorylabel("CCC(NC1=NCCO1)c1cccs1 (stereo not given)")
"inactive"
>>> categorylabel("CN(C)c1ccc(/C=N\\NC(=O)CSCC(=O)N/N=C/c2ccc(N(C)C)cc2)cc1")
"inactive"
>>> categorylabel("C[C@H](CCC(=O)O)[C@H]1CC[C@H]2[C@@H]3C(=O)C[C@@H]4C[C@H](O)CC[C@]4(C)[C@H]3C[C@H](O)[C@]12C")
"inactive"
>>> categorylabel("Cc1ccc(NC(Nc2ccc(C)cc2C)=C(/C=C(\\Cl)[N+](=O)[O-])[N+](=O)[O-])c(C)c1")
"inactive"
>>> categorylabel("Cc1csc(N/C=C2\\C(=O)Oc3ccccc3C2=O)n1")
"inactive"
>>> categorylabel("O=C(O)CCC1COc2ccccc2O1 (stereo not given)")
"inactive"
